Below, each of the compounds is paired with its reported cytotoxicity at 70.5 h value.
- measurement notes: Human HepG2 cell viability assay in 384 well format
- Type: toxicity, cell-based
- Set-up: dose 125 nL, time 70.5 hour; concentration not given beside the values
- details: HepG2 cells, read-out: Inhibition
reported metric: cytotoxicity at 70.5 h (%)

{"compound": "CN1C(=O)CO[C@H](c2ccc(NC(=O)c3cccnc3)cc2)[C@H]1CO", "reading": -2.53}
{"compound": "CCNC(=O)CC1CC2(CCN(C(C)=O)CC2)c2cc(F)ccc21 (configuration not stated)", "reading": -5.07}
{"compound": "COc1ccc(CC2(CO)CCN(c3cc(C#N)ccn3)CC2)cc1", "reading": -3.42}
{"compound": "CC(C)N1CCc2onc(Cn3cccn3)c2C1", "reading": -5.3}
{"compound": "Cc1nccn1-c1cccc(N2CCC(OCC3CCCCO3)CC2)n1 (configuration not stated)", "reading": -11.6}
{"compound": "O=S(=O)(Cc1c(F)cccc1Cl)Cc1nnnn1C1CC1", "reading": -13.2}
{"compound": "COc1cccc(NC(=O)NCc2cnn(C)c2)c1", "reading": -7.74}

---

- measurement notes: Human HepG2 cell viability assay in 384 well format
- Type: toxicity, cell-based
- Parameters: dose 125 nL, time 70.5 hour; concentration not given beside the values
- details: HepG2 cells, read-out: Inhibition
Below, each of the compounds is paired with its reported cytotoxicity at 70.5 h value.
reported metric: cytotoxicity at 70.5 h (%)

{"compound": "Cc1cccc(C(C(=O)NCc2cc(C)[nH]n2)N(C)C)c1 (stereo unspecified)", "reading": 7.18}
{"compound": "Cc1cn2c(n1)CCC(NC(=O)c1cc(C(C)C)no1)C2 (stereo unspecified)", "reading": -7.72}
{"compound": "O=C(NC1CC1)[C@H]1C[C@@H]2CCN(Cc3ccc4c(c3)OCO4)C[C@@H]2O1", "reading": -12.5}
{"compound": "CCc1nc(C(=O)N2CCOCC2CC(=O)c2ccccc2)c[nH]1 (stereo unspecified)", "reading": -8.59}
{"compound": "O=C(Cc1cccc2ccccc12)N1CCC(Nc2cccnn2)CC1", "reading": -7.06}
{"compound": "Cc1cc(C2CCCN(C(=O)c3cnccn3)C2)ccn1 (stereo unspecified)", "reading": -0.249}
{"compound": "N#CCCNC(=O)CSc1ccc(F)cc1F", "reading": -5.86}
{"compound": "Cc1noc(C)c1CCC(=O)NCC1(O)CCN(c2ccccn2)C1 (stereo unspecified)", "reading": -6.52}
{"compound": "O=C(C1CCCC1)N1CCn2c(nnc2C2CCCNC2)C1 (stereo unspecified)", "reading": -3.22}
{"compound": "COc1cc(CN(C)[C@@H]2COC[C@H]2c2ccc(F)cc2)cc(OC)c1", "reading": 0.803}
{"compound": "CN(C)c1ncc2c(n1)C1(CCN(Cc3cccnc3)C1)COC2 (stereo unspecified)", "reading": 4.89}
{"compound": "COc1ccc2nnc(CCCC(=O)NCc3ccccc3F)n2n1", "reading": 21.9}
{"compound": "Cc1cc(C(=O)N2CCS(=O)(=O)CC2)c(C)o1", "reading": -2.07}
{"compound": "Cc1cc(C(=O)N2CCC(Nc3cccnc3)CC2)c(C)s1", "reading": 2.17}
{"compound": "CN(C(=O)Cn1nc(-c2cccs2)ccc1=O)C1CCS(=O)(=O)C1 (stereo unspecified)", "reading": 11.2}
{"compound": "c1csc(CN2CCC3(CCCN(c4nncs4)C3)C2)n1 (stereo unspecified)", "reading": -1.22}
